# Setup conditions: in 2-butanone, 318.6 K
Property measured: solubility (mole fraction)
One number for each entry.

QUERY: Give solubility (mole fraction) for "O=C1C=CC(=O)N1c1cc(F)c(Br)c(F)c1"
RESULT: 0.0202

###

# Setup conditions: in DMF, 300.83 K
Property measured: solubility (mole fraction)
One number for each entry.

QUERY: Give solubility (mole fraction) for "O=C1C=CC(=O)N1c1cc(F)c(Br)c(F)c1"
RESULT: 0.0269

###

# Setup conditions: in 1,4-dioxane, 317.15 K
Property measured: solubility (mole fraction)
One number for each entry.

QUERY: Give solubility (mole fraction) for "O=C1C=CC(=O)N1c1cc(F)c(Br)c(F)c1"
RESULT: 0.0281

###

# Setup conditions: in toluene, 348.45 K
Property measured: solubility (mole fraction)

QUERY: Give solubility (mole fraction) for "O=C1C=CC(=O)N1c1cc(F)c(Br)c(F)c1"
RESULT: 0.0226

###

# Setup conditions: in cyclohexanone, 305.65 K
Property measured: solubility (mole fraction)
Answers are plain numbers.

QUERY: Give solubility (mole fraction) for "O=C1C=CC(=O)N1c1cc(F)c(Br)c(F)c1"
RESULT: 0.0221

###

# Setup conditions: in DMSO, 301.45 K
Property measured: solubility (mole fraction)
Give bare numbers.

QUERY: Give solubility (mole fraction) for "O=C1C=CC(=O)N1c1cc(F)c(Br)c(F)c1"
RESULT: 0.0161

###

# Setup conditions: in DMSO, 324.55 K
Property measured: solubility (mole fraction)
Give bare numbers.

QUERY: Give solubility (mole fraction) for "O=C1C=CC(=O)N1c1cc(F)c(Br)c(F)c1"
RESULT: 0.0314

###

# Setup conditions: in toluene, 291.05 K
Property measured: solubility (mole fraction)
Numbers only.

QUERY: Give solubility (mole fraction) for "O=C1C=CC(=O)N1c1cc(F)c(Br)c(F)c1"
RESULT: 0.0031

###

# Setup conditions: in 1,4-dioxane, 287.65 K
Property measured: solubility (mole fraction)
Answers are plain numbers.

QUERY: Give solubility (mole fraction) for "O=C1C=CC(=O)N1c1cc(F)c(Br)c(F)c1"
RESULT: 0.0122

###

# Setup conditions: in cyclohexanone, 311.65 K
Property measured: solubility (mole fraction)
One number for each entry.

QUERY: Give solubility (mole fraction) for "O=C1C=CC(=O)N1c1cc(F)c(Br)c(F)c1"
RESULT: 0.0259

###

# Setup conditions: in toluene, 354.45 K
Property measured: solubility (mole fraction)
Give bare numbers.

QUERY: Give solubility (mole fraction) for "O=C1C=CC(=O)N1c1cc(F)c(Br)c(F)c1"
RESULT: 0.0276

###

# Setup conditions: in 2-butanone, 343.5 K
Property measured: solubility (mole fraction)
One number for each entry.

QUERY: Give solubility (mole fraction) for "O=C1C=CC(=O)N1c1cc(F)c(Br)c(F)c1"
RESULT: 0.0411

###

# Setup conditions: in toluene, 325.15 K
Property measured: solubility (mole fraction)
Give bare numbers.

QUERY: Give solubility (mole fraction) for "O=C1C=CC(=O)N1c1cc(F)c(Br)c(F)c1"
RESULT: 0.0103

###

# Setup conditions: in DMF, 356.25 K
Property measured: solubility (mole fraction)
Give bare numbers.

QUERY: Give solubility (mole fraction) for "O=C1C=CC(=O)N1c1cc(F)c(Br)c(F)c1"
RESULT: 0.1
